# test-system: GST-Syk Full Protein (human) (Homo sapiens, UniProt P43405)
# assay-text: Syk kinase inhibition test (HTRF method)
# Assay type: biochemical
# condition-details: Tables 1-x, compounds A; read-out: sykHTRF ave IC50
# Experimental: Syk Kinase Inhibition Test (HTRF Method) After the compounds were serially diluted with dimethylsulfoxide (DMSO), 10 μL of those 10-fold diluted with kinase buffer (20 mM HEPES pH 7.0, 10 mM MgCl2, 50 mM NaCl, 1 mM 2-ME, 0.05% BSA) was added to opti-plate HTRF-96 (Packard) (final DMSO concentration: 2%). […]
observed-property: IC50

>  <molecule>
COCCN(C)c1ncc(-c2cccc(Nc3cc(C)ccn3)n2)s1

>  <IC50>
< 0.1 µM

$$$$
>  <molecule>
Cc1ccnc(Nc2cccc(-c3cnc(NCCc4ccccc4)s3)n2)c1

>  <IC50>
0.1 to 1 µM

$$$$
>  <molecule>
O=C(O)CC1CC2CCC(C1)N2c1ncc(-c2cccc(Nc3cc(C(F)(F)F)ccn3)n2)s1 (stereo not shown)

>  <IC50>
< 0.1 µM

$$$$

The measured IC50 associated with CC(=O)N(C)[C@@H](Cc1ccc(O)cc1)c1ncc(-c2cccc(Nc3cc(C)ccn3)n2)s1 reads 0.1 to 1 µM

Entry Cc1ccnc(Nc2cccc(-c3cnc(C4CCCNC4)s3)n2)c1 (stereo not shown) ; IC50 = 0.1 to 1 µM

Form field IC50, entry Cc1ccnc(Nc2cccc(-c3cnc(N(C)CCO)s3)n2)c1 : < 0.1 µM

Looking up COC(=O)N(CCCC(=O)O)Cc1ncc(-c2cccc(Nc3cc(C)ccn3)n2)s1 , I see its IC50 listed as 0.1 to 1 µM

###

# test-system: GST-Syk Full Protein (human) (Homo sapiens)
# assay-text: Syk kinase inhibition test (HTRF method)
# Format: biochemical
# condition-details: HTRF, 100 μM ATP, 30 min room temperature, average; read-out: sykHTRF ave IC50
pIC50: −log10 of the molar value.
Listed below: pIC50 values for each entry.

>  <molecule>
Cc1ccnc(Nc2cccc(-c3cnc(CCc4cccc(CO)c4)s3)n2)c1

>  <recorded-measurement>
> 7.00

$$$$
>  <molecule>
NC(=O)[C@H]1CC[C@H](c2ncc(-c3cccc(Nc4cc(Cl)ccn4)n3)s2)CC1

>  <recorded-measurement>
> 7.00

$$$$
>  <molecule>
CC(=O)N[C@@H](C)c1ncc(-c2cccc(Nc3cc(C)ccn3)n2)s1

>  <recorded-measurement>
6.00 to 7.00

$$$$

The measured pIC50 associated with Cc1ccnc(Nc2cccc(-c3cnc(C(=O)NCCC(=O)O)s3)n2)c1 reads > 7.00

pIC50 reported for this molecule Cc1ccnc(Nc2cccc(-c3cnc(COCC(=O)N4CCNC(=O)C4)s3)n2)c1 : > 7.00

What the record says about Cc1ccnc(Nc2cccc(-c3cnc(CCCCC(N)=O)s3)n2)c1 : pIC50 is > 7.00

# molecule Cc1ccnc(Nc2cccc(-c3cnc(C4CCC(=O)CC4)s3)n2)c1 ; its pIC50 = 6.00 to 7.00

Field pIC50 (entry Cc1ccnc(Nc2cccc(-c3cnc(C4CCCC(C(=O)N5CCC(O)CC5)C4)s3)n2)c1 (stereo not shown) [Compound A-271] ) reads 6.00 to 7.00

response.value for CC(=O)NCCc1ncc(-c2cccc(Nc3cc(C)ccn3)n2)s1 (field: pIC50) = 6.00 to 7.00

Memo: COc1ccc(C[C@H](NC(C)=O)c2ncc(-c3cccc(Nc4cc(C)ccn4)n3)s2)cc1 , reported pIC50: 6.00 to 7.00

response.value for Cc1ccnc(Nc2cccc(-c3cnc(C(C)(C)NC(=O)OC(C)(C)C)s3)n2)c1 (field: pIC50) = < 6.00

Recorded result, CCC(=O)Nc1nc(C)c(-c2cccc(Nc3cc(C)ccn3)n2)s1 , pIC50: > 7.00

molecule Cc1ccnc(Nc2cccc(-c3cnc(CC(C)(C)NS(C)(=O)=O)s3)n2)c1 , pIC50 observed: > 7.00

Per the record, CC(=O)N1CCC(c2ncc(-c3cccc(Nc4cc(C)ccn4)n3)s2)CC1 has pIC50 of 6.00 to 7.00

The molecule listed as CC(=O)Nc1ccc(C[C@H](NC(C)=O)c2ncc(-c3cccc(Nc4cc(C)ccn4)n3)s2)cc1 shows pIC50 equal to 6.00 to 7.00

Value of pIC50 reported for the molecule Cc1ccnc(Nc2cccc(-c3cnc(CN4CCN(C)CC4)s3)n2)c1 is 6.00 to 7.00

According to the records, this molecule Cc1ccnc(Nc2cccc(-c3cnc(CCNC(=O)CO)s3)n2)c1 displays pIC50 of 6.00 to 7.00

Notebook: Cc1ccnc(Nc2cccc(-c3cnc(CN4CCC(NC(=O)CO)CC4)s3)n2)c1 , pIC50 read as 6.00 to 7.00

get_value(item= Cc1ccnc(Nc2cccc(-c3cnc(CC4CCC(C(=O)O)CC4)s3)n2)c1 (stereo not shown) , readout=pIC50) returns 6.00 to 7.00
